Please provide measured OD450 nm for the entries that follow.
# Tested on: BSA (UniProt P02769)
# Sequence (P02769 25-607 limits assumed): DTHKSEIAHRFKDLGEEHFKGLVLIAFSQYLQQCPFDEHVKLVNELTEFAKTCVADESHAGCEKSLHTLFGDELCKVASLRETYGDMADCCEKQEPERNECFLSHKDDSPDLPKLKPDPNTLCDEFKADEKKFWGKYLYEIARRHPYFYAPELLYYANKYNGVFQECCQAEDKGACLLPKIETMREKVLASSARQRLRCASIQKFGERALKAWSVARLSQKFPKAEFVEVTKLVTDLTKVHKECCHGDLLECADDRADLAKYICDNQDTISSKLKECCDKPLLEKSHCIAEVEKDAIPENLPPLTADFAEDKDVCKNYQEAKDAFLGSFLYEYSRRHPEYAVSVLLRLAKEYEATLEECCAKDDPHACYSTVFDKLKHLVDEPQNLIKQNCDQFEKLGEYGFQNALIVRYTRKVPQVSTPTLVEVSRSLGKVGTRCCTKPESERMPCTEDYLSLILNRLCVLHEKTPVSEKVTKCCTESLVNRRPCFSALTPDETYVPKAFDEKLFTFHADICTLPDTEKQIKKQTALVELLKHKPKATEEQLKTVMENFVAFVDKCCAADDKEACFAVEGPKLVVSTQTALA
# Assay remarks: ELISA on coated BSA control, anti-myc detection; 20ug antibody added
Numbers only, in OD450.

Past entries and their recorded results:
anti-CD79B single-domain antibody JYB11 (VHH, Alpaca VHH from a phage library; ELISA detected with an anti-myc antibody; a myc tag is not described; not shown: His-tag protein at the C-terminal end) VHH: DVQLQESGGGLVQPGGSLSLSCAASMSSPSLWVRAWHRQAPGKQRELVAAINSDGQTMYADSVKGRFTISRDNAKTLVSLQMDSLKPEDTAVYYCNVVTPRGQQYWGQGTQVTVSS = 0.0489
anti-CD79B single-domain antibody JYB8 (VHH, not shown: small tags and cut ends) VHH: DVQLQESGGGLMQPGGSLSLTCTASISSLSIWVRAWHRQAPGKQRELVAAINSDGQTMYADSVKGRFTISRDSAKTTVSLQMDSLKPEDTAVYYCNVVTPKGQQYWGQGTQVTVSS = 0.0537
anti-CD79B single-domain antibody JYB10 (VHH, Alpaca VHH from a phage library; ELISA detected with an anti-myc antibody; a myc tag is not described; not shown: His-tag protein at the C-terminal end) VHH: DVQLQESGGGLVQPGGSLSLSCAASISSSSIWVRAWHRQAPGKQRELVAAINNDGQTMYADSVKGRFTISRDNAKTTVSLQMNSLKPEDTAVYYCNVVTPKGHQYWGQGTQVTVSS = 0.0493
anti-CD79B single-domain antibody JYB4 (VHH, Alpaca VHH from a phage library; not shown: His-tag protein at the C-terminal end) VHH: DVQLQESGGGLVQPGGSLRLSCAASGFAFSLYAMSWARQAPGKGLEWVSDIYGDDDSRRNYADSVKGRFTISRDNAKNTVYLQMTNLQPEDTALYYCGKGRDGTRWSAREYEYRGQGTQVTVSS = 0.0488

Shift focus to the following entry.
Query string: Fill blank: measured OD450 nm of the binder anti-CD79B single-domain antibody JYB14 (VHH, Alpaca VHH from a phage library; ELISA detected with an anti-myc antibody; a myc tag is not described; not shown: His-tag protein at the C-terminal end) VHH: DVQLQESGGGLVQPGGSLSLTCTASISSLTIWVRAWHRQAPGKQRELVAAINSDGQTMYADSVKGRFTISRDNAKTTVSLQMDSLKPEDTAVYYCNVVTPNGQQYWGQGTQVTVSS is ____.
Result string: 0.0489
